target: UniProtKB Q96SW2; test: Kd and % inhibition from FI; assay type: binding; conditions: 200 uM
Sequence (Q96SW2 whole entry, species assumed): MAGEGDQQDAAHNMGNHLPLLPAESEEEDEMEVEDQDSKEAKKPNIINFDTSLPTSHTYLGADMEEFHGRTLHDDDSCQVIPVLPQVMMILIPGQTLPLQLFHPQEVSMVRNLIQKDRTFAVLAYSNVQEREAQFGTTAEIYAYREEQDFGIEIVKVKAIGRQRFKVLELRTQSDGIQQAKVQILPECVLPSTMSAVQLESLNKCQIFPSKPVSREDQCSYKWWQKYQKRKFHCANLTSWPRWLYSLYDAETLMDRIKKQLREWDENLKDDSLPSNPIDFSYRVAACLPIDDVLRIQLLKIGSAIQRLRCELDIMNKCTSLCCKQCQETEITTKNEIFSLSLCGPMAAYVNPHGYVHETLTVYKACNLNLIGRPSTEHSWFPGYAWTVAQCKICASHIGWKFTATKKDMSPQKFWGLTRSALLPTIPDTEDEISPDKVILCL
MEASUREMENT KIND: % inhibition @ 200 uM from *FI

# annotated cases, reported % inhibition @ 200 uM from *FI shown
| MOLECULE | % inhibition @ 200 uM from *FI |
| --- | --- |
| O=C1CCC(N2C(=O)c3cccc(NC(=O)[C@H]4CC[C@H](C(=O)Nc5cccc6c5C(=O)N(C5CCC(=O)NC5=O)C6=O)CC4)c3C2=O)C(=O)N1 (some centres unmarked) | n.b. |
| O=C1CCC(N2C(=O)c3cccc(NC(=O)[C@H]4CC[C@@H](C(=O)Nc5cccc6c5C(=O)N(C5CCC(=O)NC5=O)C6=O)CC4)c3C2=O)C(=O)N1 (some centres unmarked) | n.b. |
| O=C1CCC(N2C(=O)c3cccc(NC(=O)CCCCCCCCC(=O)Nc4cccc5c4C(=O)N(C4CCC(=O)NC4=O)C5=O)c3C2=O)C(=O)N1 (centres unmarked) | n.b. |
| O=C1CCC(N2C(=O)c3cccc(NC(=O)CCCCCCCC(=O)Nc4cccc5c4C(=O)N(C4CCC(=O)NC4=O)C5=O)c3C2=O)C(=O)N1 (centres unmarked) | n.b |

Note down % inhibition @ 200 uM from *FI recorded for O=C1CCC(N2C(=O)c3cccc(NC(=O)CCCCCCC(=O)Nc4cccc5c4C(=O)N(C4CCC(=O)NC4=O)C5=O)c3C2=O)C(=O)N1 (centres unmarked)
n.b.
